Target: PLK4 (Homo sapiens)
Sequence (O00444 whole entry): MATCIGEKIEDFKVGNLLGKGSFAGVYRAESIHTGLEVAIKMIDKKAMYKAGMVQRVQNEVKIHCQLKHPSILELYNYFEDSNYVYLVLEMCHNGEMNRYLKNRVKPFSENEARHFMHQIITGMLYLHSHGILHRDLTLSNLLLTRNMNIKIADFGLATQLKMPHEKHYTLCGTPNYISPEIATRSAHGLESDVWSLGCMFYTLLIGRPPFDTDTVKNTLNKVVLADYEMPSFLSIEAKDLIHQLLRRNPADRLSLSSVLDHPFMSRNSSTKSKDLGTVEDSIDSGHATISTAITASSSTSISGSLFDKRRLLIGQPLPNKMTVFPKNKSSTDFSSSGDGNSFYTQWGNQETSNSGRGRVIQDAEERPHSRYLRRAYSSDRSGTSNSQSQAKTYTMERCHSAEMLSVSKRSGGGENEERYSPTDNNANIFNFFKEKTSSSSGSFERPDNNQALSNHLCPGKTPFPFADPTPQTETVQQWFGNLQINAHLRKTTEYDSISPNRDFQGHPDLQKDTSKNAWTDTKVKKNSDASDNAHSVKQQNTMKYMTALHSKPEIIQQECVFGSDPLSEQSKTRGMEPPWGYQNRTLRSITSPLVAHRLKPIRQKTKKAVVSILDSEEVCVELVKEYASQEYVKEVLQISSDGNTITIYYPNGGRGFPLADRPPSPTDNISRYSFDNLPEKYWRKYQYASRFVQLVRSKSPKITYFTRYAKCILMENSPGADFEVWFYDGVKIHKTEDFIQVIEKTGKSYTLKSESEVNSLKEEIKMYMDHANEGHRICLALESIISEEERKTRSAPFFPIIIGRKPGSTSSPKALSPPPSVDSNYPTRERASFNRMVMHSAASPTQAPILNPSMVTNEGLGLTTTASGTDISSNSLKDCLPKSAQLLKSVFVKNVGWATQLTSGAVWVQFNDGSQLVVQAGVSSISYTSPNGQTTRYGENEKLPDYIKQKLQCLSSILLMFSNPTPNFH
Assay: PLK4 NanoBRET target engagement assay
Details: HEK293 T cells transfected with PLK4 NanoLuc fusion vector; K-5 tracer; 2 hrs incubation
Procedure: To determine the affinity of Compounds described herein in the PLK4 NanoBRET target engagement assay, HEK293 T cells (ATCC Product Number CRL-3216) are first transfected with the PLK4 NanoLuc fusion vector DNA and Transfection carrier DNA using the Fugene HD Transfection reagent in Opti-MEM No Phenol Red buffer. […] The plate is then transferred in the Envision plate reader where the Acceptor emission (610 nm) and the Donor emission (450 nm) are measured. […]
Measured Metric: pIC50
Answers are plain numbers, as −log10 of the molar value.

Cc1cc(Nc2nc(N(C)c3c(F)cc(S(C)(=O)=O)cc3F)nc(-c3cnn(C)c3C(=O)N3CCC3)c2C2CC2)n[nH]1 [Compound 263] :: 8.05
CNC(=O)Cn1cc(-c2nc(N(C)c3c(F)cc(S(C)(=O)=O)cc3F)nc(Nc3cc(C)[nH]n3)c2C2CC2)cn1 [Compound 171] :: 7.64
Cc1cc(Nc2nc(N(C)c3c(F)cc(S(C)(=O)=O)cc3F)nc(-c3cn(CCS(C)(=O)=O)c(C)n3)c2C2CC2)n[nH]1 [Compound 192] :: 6.21
COc1cc(F)c(N(C)c2nc(Nc3cc(C)[nH]n3)c(C3CC3)c(-c3cn(C)cn3)n2)c(F)c1 [Compound 338] :: 7.11
COC1CCc2nc(-c3nc(N(C)c4c(F)cc(S(C)(=O)=O)cc4F)nc(Nc4cc(C)[nH]n4)c3C3CC3)cn2C1 (centres unmarked) [Compound 324] :: 8.52

Quick one: give me pIC50 for each item below, same order please.
1. COc1c(-c2cnn(C)c2)cc(N(C)c2ccc(S(C)(=O)=O)cc2F)nc1Nc1cc(C)[nH]n1 [Compound 19]
2. COc1ccc(F)c(N(C)c2nc(Nc3cc(C)[nH]n3)c(OC)c(-c3cnn(C)c3)n2)c1 [Compound 74]

[7.25, 5.92]

Source of measurements: patent US20250177396A1
